Each record here notes measured inhibition at 0.02 µM.
- System Name: GST-Bcl-B (Homo sapiens, UniProt Q9HD36)
- Sequence (Q9HD36 1-182 limits assumed): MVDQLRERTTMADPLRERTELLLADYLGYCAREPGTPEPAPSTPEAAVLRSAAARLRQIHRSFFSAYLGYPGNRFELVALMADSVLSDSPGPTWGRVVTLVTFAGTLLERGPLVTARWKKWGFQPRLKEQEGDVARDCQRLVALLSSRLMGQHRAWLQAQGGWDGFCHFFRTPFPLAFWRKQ
- Test: Bcl-B/FITC-TR3-r8 fluorescence polarization competition (displacement) assay, HTS and dose-response
- Test Context: read-out: Result Value (Result Type % Inhibition), BCL-b/TR3
Supply the numeric figure in %, leaving out any unit text.

Reference set, count: 3
>  <Molecule>
CN(C)c1ccc(/C=c2\c3n(c4ccccc24)N(C)C(c2ccc(Cl)cc2)C=3)cc1.O=S(=O)(O)C(F)(F)F (stereo not shown)

>  <Unit Of Measurement>
%

>  <inhibition at 0.02 µM>
60.6

$$$$
>  <Molecule>
O=S(=O)(O)c1ccc2c(/N=N/c3c(O)ccc4ccccc34)cccc2c1

>  <Unit Of Measurement>
%

>  <inhibition at 0.02 µM>
119

$$$$
>  <Molecule>
Ic1ccc2c(c1)N(c1ccccc1)c1cc(Nc3ccc4nc5ccc(I)cc5[n+](-c5ccccc5)c4c3)ccc1N2

>  <Unit Of Measurement>
%

>  <inhibition at 0.02 µM>
61.8

$$$$

Requested read-out: inhibition at 0.02 µM. Entry: Nc1c(S(=O)(=O)O)cc(Nc2cccc(S(N)(=O)=O)c2)c2c1C(=O)c1ccccc1C2=O
163
